- Tested on: U251 CNS
- TEST DESCRIPTION: NCI-60 one-dose screen, 48 h (100 = growth as untreated, 0 = no growth, -100 = all killed)
- TEST CONDITIONS: 10 µM unless noted
Compounds without any hit were thinned out: in the full panel of roughly 83,000, 20% have a hit. Active and inactive are the calls of the source. The calls were made as follows: active = growth percent below 10; inactive = the rest.
Hi there, I'd appreciate the recorded growth for every entry that follows.

Request: Would you kindly share the measured growth for "Cc1cc(N2CCOCC2)nc(N2CCOCC2)n1" ?
Response: 102% (inactive)

Request: Then "Oc1ccccc1/C=N\Nc1ccccc1" ?
Response: 75.9% (inactive)

Request: Then "Cc1ccc([N+](=O)[O-])cc1NC(=O)Nc1cccc(F)c1" ?
Response: 64.3% (inactive)

====

Hi there, I'd appreciate the recorded growth for every entry that follows.
- Tested on: HS 578T breast
- TEST DESCRIPTION: NCI-60 one-dose screen, 48 h (100 = growth as untreated, 0 = no growth, -100 = all killed)
- TEST CONDITIONS: 10 µM unless noted
Compounds without any hit were thinned out: in the full panel of roughly 83,000, 20% have a hit.
Value expressed in %; do not type the unit.

Request: Would you kindly share the measured growth for "COc1ccc(-c2c(N)noc2-c2cc(OC)c3c(c2)OCCO3)cc1" ?
Response: 25.9

Request: Then "NC(N)=NN=c1c(=O)c2ccccc2c1=O" ?
Response: 109

Request: Then "Cc1cc(C(=O)O)c(C)cc1C(=O)O" ?
Response: 122

====

- System: RPMI-8226 leukemia
- TEST DESCRIPTION: NCI-60 one-dose screen, 48 h
- TEST CONDITIONS: 10 µM unless noted
This is part of a sample that, as a whole, favours compounds with a hit. Of some 83,000 tested, about 20% had one in any assay. Active and inactive are the calls of the source. The calls were made as follows: active = growth percent below 10; inactive = the rest.
One label from this list, please: 1 for active, 0 for inactive

Request: Lab log entry: "O=C1CN(CO)C(=O)CN1CO" — outcome as called in the assay?
Response: 0

Request: Then "COc1ccc2c(c1)C(=O)c1c-2c(=O)n(CCCCCCC(=O)NO)c2ccccc12" ?
Response: 1

Request: Then "O=C(CCc1nnc(SCc2ccccc2)s1)c1nc2ccccc2[nH]1" ?
Response: 0

Request: Then COc1cc(C2C=C(c3ccc(C)cc3)Nc3nc(SC)[nH]c(=O)c32)ccc1Oc1ccnc2cc(Cl)ccc12 (stereo not given) ?
Response: 0

Request: Then "NC(N)=NC(N)=NCCCc1ccccc1" ?
Response: 0

Request: Then O=c1[nH]c(=O)n(C2CC(O)C(CO)O2)cc1C(F)(F)F (stereo not given) ?
Response: 1

Request: Then "Cc1ccccc1-c1cc(Cc2ccccc2O)c(=O)[nH]n1" ?
Response: 0

Request: Then "CCOc1cc(-c2ccc[nH]2)[nH]c1/C=C1\N=C(C)C(C(=O)OC)=C1C" ?
Response: 1

Request: Then "Cc1ccc2c(c1)C(=O)/C(=C/c1ncc([N+](=O)[O-])n1C)O2" ?
Response: 1

Request: Then "Cn1c(=O)c2c(nc(Br)n2CCC(=O)Nc2ccc(F)cc2)n(C)c1=O" ?
Response: 0

Request: Then CCOc1cccc(C2CC(=O)Nc3cc4c(cc32)OCO4)c1 (stereo not given) ?
Response: 0

Request: Then "Cc1nc(N)[nH]c(=O)c1C" ?
Response: 0

Request: Then "Cn1cc(-c2csc(-c3cn(C)c4ncccc34)n2)c2cc(F)cnc21" ?
Response: 0

Request: Then CO[C@H]1CC(O[C@@H]2/C(C)=C/C[C@@H]3C[C@@H](C[C@]4(CC[C@H](C)[C@@H](C5CCCCC5)O4)O3)OC(=O)[C@@H]3C=C(C)/C(=N/O)[C@H]4OC/C(=C\C=C\[C@@H]2C)[C@]43O)O[C@@H](C)C1O (stereo not given in full) ?
Response: 1

Request: Then "CCCCCCOc1ccc(/C=N/NC(N)=S)cc1" ?
Response: 1

====

- Tested on: HCT-116 colon
- TEST DESCRIPTION: NCI-60 one-dose screen, 48 h (100 = growth as untreated, 0 = no growth, -100 = all killed)
- TEST CONDITIONS: 10 µM unless noted
About 83,000 compounds went through this panel and 20% of them were active in at least one assay; those are over-represented in the sample as a whole.
EXPERIMENTAL READOUT: growth (%)
Value expressed in %; do not type the unit.

Request: Fill in the recorded growth for this molecule, with HCT-116 colon as test system: "CCCCSc1cc(C)nc(N)n1"
Response: 90.7

Request: Then "Cc1cc(N2CCOCC2)nc(N2CCOCC2)n1" ?
Response: 92.2

Request: Then "Oc1ccc(-c2nn(-c3ccccc3)cc2-c2nc3ccccc3s2)cc1" ?
Response: 88.8

====

- Tested on: EKVX NSCLC
- TEST DESCRIPTION: NCI-60 one-dose screen, 48 h
- TEST CONDITIONS: 10 µM unless noted
- Procedure: Growth inhibition of the EKVX human Non-Small Cell Lung tumor cell line is measured as a screen for anti-cancer activity. Cells are grown in 96 well plates and exposed to the test compound for 48 hours. Compounds are tested at a single concentration, which is 10^-5 M for most compounds. The reported endpoint is percent growth (GI% or GIPRCNT), where numbers from 0 - 100% represent growth inhibition, and numbers from -100% - 0 represent cell death. […]
Compounds without any hit were thinned out: in the full panel of roughly 83,000, 20% have a hit. The source made the active and inactive calls. The calls were made as follows: active = growth percent below 10; inactive = the rest.
One label from this list, please: YES for active, NO for inactive

Request: Lab log entry: "COc1ccc(OC)c2c1[nH]c(=O)c1c3ccccc3cn21" — outcome as called in the assay?
Response: YES

Request: Then "O[C@@H]1Cc2ccc3ccccc3c2N[C@H](c2ccoc2)C1" ?
Response: NO

Request: Then "O=C(Oc1ccc[nH]c1=O)c1cccc(Cl)c1" ?
Response: NO

Request: Then "C[C@]12C[C@H](O)[C@H]3[C@@H](CCC4=CC(=O)CC[C@@]43C)[C@@H]1CC[C@@H]2C(=O)CO" ?
Response: NO

Request: Then "Cc1nnc(Nc2ccc(NC(=O)Nc3ccc(Cl)cc3)cc2)c2ccccc12" ?
Response: NO

Request: Then "COc1ccc(/C=C/C(=O)Nc2cccnc2Nc2ccc(F)cc2)cc1" ?
Response: NO

Request: Then "COc1ccc2[nH]cc(/C=C3/C(=O)Nc4ccc(Cl)cc43)c2c1" ?
Response: NO

Request: Then "O=C(O)C(=O)O" ?
Response: NO

Request: Then "COc1ccc(-c2cc(Cc3cccs3)c(=O)n(Cn3ccc4ccccc43)n2)cc1" ?
Response: NO

Request: Then "O=C1/C(=C/c2ccc3cccc(Cl)c3n2)SC(=S)N1CCc1ccc(O)cc1" ?
Response: NO

Request: Then "COc1ccc2c(c1)C(=O)/C(=C/c1cccc(OCC(=O)c3ccccc3)c1)CC2" ?
Response: NO

Request: Then "COc1cc(Oc2cc(-c3cccnc3)ccc2NC(=O)Nc2ccc(F)cc2F)cc(OC)c1OC" ?
Response: NO

Request: Then COc1ccc(C2CC(c3cccc(Nc4ccnc5cc(Cl)ccc45)c3)=NN2C=O)cc1 (stereo not drawn) ?
Response: NO

====

- System: SK-MEL-2 melanoma
- TEST DESCRIPTION: NCI-60 one-dose screen, 48 h (100 = growth as untreated, 0 = no growth, -100 = all killed)
- TEST CONDITIONS: 10 µM unless noted
Compounds without any hit were thinned out: in the full panel of roughly 83,000, 20% have a hit.
EXPERIMENTAL READOUT: growth (%)
Value expressed in %; do not type the unit.

Request: Fill in the recorded growth for this molecule, with SK-MEL-2 melanoma as test system: CC(=O)Oc1ccc(C23c4ccccc4C2(OC(C)=O)c2cc(OC(C)=O)ccc23)cc1 (configuration not stated)
Response: 97.9

Request: Then CCN(CC)c1ccc(C(O)C2=CC(=O)c3ccccc3C2=O)cc1 (configuration not stated) ?
Response: -27.9

Request: Then "CC/C(=C\c1ccc(N(C)C)cc1)c1nc2ccccc2c(=O)[nH]1" ?
Response: -13.9

Request: Then "Fc1ccc(-c2nc(Nc3ccc(-c4nc5ccccc5[nH]4)cc3)nc(N3CCOCC3)n2)cc1" ?
Response: -71.3

Request: Then "C/C(=N\N1CC(=O)NC1=O)c1ccc([N+](=O)[O-])o1" ?
Response: 106

Request: Then "Cc1nn(-c2ccccc2)c2ncc3c(c12)C(=O)N(Cc1ccccc1)C3=O" ?
Response: 113

Request: Then "COC(=O)C[C@@H]1CC=CC(=O)/C1=C(O)/C=C/c1ccccc1" ?
Response: -22

====

- Tested on: SNB-19 CNS
- TEST DESCRIPTION: NCI-60 one-dose screen, 48 h (100 = growth as untreated, 0 = no growth, -100 = all killed)
- TEST CONDITIONS: 10 µM unless noted
The panel holds about 83,000 compounds, 20% with a hit somewhere; the sample as a whole holds those more often. The source made the active and inactive calls. How the source made its calls: active means growth percent below 10; inactive means the rest.
EXPERIMENTAL READOUT: growth

Request: Would you kindly share the measured growth for "Cc1ccc(NC(=O)CSc2nnc3n(Cc4ccccc4)c(=O)c4c(C)c(C(N)=O)sc4n23)cc1" ?
Response: 68.6% (inactive)

Request: Then "C=C(C)[C@@H]1C/C=C(/C=O)CC[C@@H]2O[C@@]2(C)CC/C=C(\C)CC1" ?
Response: 110% (inactive)

Request: Then "Fc1ccc([C@@H]2CCNC[C@H]2COc2ccc3c(c2)OCO3)cc1" ?
Response: 80.2% (inactive)

Request: Then "C[n+]1ccc(Nc2ccc(NC(=O)c3ccc(Nc4cc[n+](C)c5ccc(N)cc45)cc3)cc2)cc1" ?
Response: 100% (inactive)

Request: Then O=C(/C=C/c1ccccc1)CC(c1ccccc1)N1CCOCC1 (centres undefined) ?
Response: 71.8% (inactive)

Request: Then "CN(CC(=O)Nc1nc2ccccc2[nH]1)S(=O)(=O)c1ccc(Cl)cc1" ?
Response: 92.4% (inactive)

Request: Then "NC(N)=N/N=C(/c1ccccc1)c1ccc(Cl)cc1" ?
Response: 63.8% (inactive)

Request: Then Cc1cc(C)c2c(c1)N1OC(C2)C[C@H]1/C=C/c1ccccc1 (some centres undefined) ?
Response: 103% (inactive)

Request: Then COc1cc(/C=C/C(=O)c2ccc(F)cc2)ccc1OCCCCCOc1cc2c(cc1OC)C(=O)N1CCCC1C=N2 (centres undefined) ?
Response: 2.88% (active)

Request: Then "Cc1ccc2c(c1)C(=O)/C(=C/c1ncc([N+](=O)[O-])n1C)O2" ?
Response: 11.8% (inactive)

Request: Then "CC[C@H](C)C(=O)O[C@H]1C[C@@H](C)C=C2C=C[C@H](C)[C@H](CC[C@@H]3C[C@@H](O)CC(=O)O3)[C@H]21" ?
Response: 64.9% (inactive)

Request: Then "CC(C)C/C(=N\NC(=O)c1ccncc1)c1cc(Cl)ccc1O" ?
Response: 31.3% (inactive)

Request: Then CCOC(=O)C(C(C)=O)c1nc2sc3cc(Cl)ccc3n2c(=N)c1C#N (centres undefined) ?
Response: 89.6% (inactive)

Request: Then "S=C(Nc1ccc(C2=NCCN2)cc1)Nc1ccc(C2=NCCN2)cc1" ?
Response: 105% (inactive)

Request: Then "COc1ccc2nc(-c3ccc(-n4cncc4-c4ccc(OC)c(N)c4)cc3)sc2c1" ?
Response: 98.6% (inactive)

Request: Then "O=C1OC(c2ccc(-c3ccccc3)cc2)=C/C1=C/c1cccs1" ?
Response: 131% (inactive)

Request: Then "N#CCNc1ccccc1N" ?
Response: 117% (inactive)

Request: Then "Cc1nn(-c2ccccc2)c2nc(Cl)c(/C=C/C(=O)c3ccccc3)c(-c3ccccc3)c12" ?
Response: 98.9% (inactive)

Request: Then "O=C1Cc2cc(CCn3cncn3)c(Cl)cc2N1" ?
Response: 74.4% (inactive)

Request: Then "N#Cc1c(N2CCOCC2)nc2sc3cc(Cl)ccc3n2c1=N" ?
Response: 77.8% (inactive)

Request: Then "OC(CCC(O)(c1ccccc1)c1ccccc1)(c1ccccc1)c1ccccc1" ?
Response: 106% (inactive)

Request: Then "COc1cc(/C=C/C(=O)c2c(-c3ccc(F)cc3)nc3sc(C)nn23)cc(OC)c1OC" ?
Response: 84.9% (inactive)

Request: Then "Cc1c(C)c(N2C(=O)C=CC2=O)c(C)c(C)c1N1C(=O)C=CC1=O" ?
Response: 97.3% (inactive)

Request: Then "COc1cccc(/C=C2\COc3ccc(O)c(O)c3C2=O)c1OC" ?
Response: 31.6% (inactive)
